# Adenosine receptor A2a (Homo sapiens): Ki values follow
# Sequence (P29274 whole entry): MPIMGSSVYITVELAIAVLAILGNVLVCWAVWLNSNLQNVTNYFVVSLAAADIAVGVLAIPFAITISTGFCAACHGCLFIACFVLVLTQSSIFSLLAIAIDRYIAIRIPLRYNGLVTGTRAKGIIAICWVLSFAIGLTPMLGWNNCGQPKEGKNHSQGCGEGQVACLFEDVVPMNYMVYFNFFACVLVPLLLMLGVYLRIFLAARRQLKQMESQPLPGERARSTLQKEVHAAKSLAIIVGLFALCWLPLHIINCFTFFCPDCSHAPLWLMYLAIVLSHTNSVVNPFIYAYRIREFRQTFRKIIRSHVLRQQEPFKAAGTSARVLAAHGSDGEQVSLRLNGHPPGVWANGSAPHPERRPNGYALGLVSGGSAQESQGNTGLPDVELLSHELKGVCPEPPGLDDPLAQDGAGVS
Numeric answer only, unit nM assumed.

Example cases with answers are listed next.
In: Request body: readout Ki, system Adenosine receptor A2a (Homo sapiens), query CCCCC#Cc1nc(N)c2ncn([C@H]3[C@H](O)[C@H](O)[C@@H]4C[C@@H]43)c2n1 . Return the value.
Out: 100

In: Request body: readout Ki, system Adenosine receptor A2a (Homo sapiens), query CCCCC#Cc1nc(NCc2cccc(Cl)c2)c2ncn([C@H]3[C@H](O)[C@H](O)[C@@H]4C[C@@H]43)c2n1 . Return the value.
Out: 3310

Continuing:
In: Request body: readout Ki, system Adenosine receptor A2a (Homo sapiens), query CCCCC#Cc1nc(NCC)c2ncn([C@H]3[C@H](O)[C@H](O)[C@@H]4C[C@@H]43)c2n1 . Return the value.
Out: 2860

###

# Adenosine receptor A3 (Rattus norvegicus, UniProt P28647): pKi values follow
# Sequence (P28647 whole entry): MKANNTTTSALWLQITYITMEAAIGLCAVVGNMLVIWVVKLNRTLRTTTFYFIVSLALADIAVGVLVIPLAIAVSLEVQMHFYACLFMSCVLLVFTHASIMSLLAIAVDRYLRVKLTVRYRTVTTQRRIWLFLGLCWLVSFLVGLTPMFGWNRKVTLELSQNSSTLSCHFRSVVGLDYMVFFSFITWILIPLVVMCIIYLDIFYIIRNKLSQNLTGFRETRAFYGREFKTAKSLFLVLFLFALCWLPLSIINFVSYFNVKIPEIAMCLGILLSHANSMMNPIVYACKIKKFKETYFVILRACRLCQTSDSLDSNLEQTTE
Scale: pKi equals -log10([C]), with [C] in mol/L.

In: Requested read-out: pKi. Entry: CCCCC#Cc1nc(NCc2cccc(F)c2)c2ncn([C@H]3[C@H](O)[C@H](O)[C@@H]4C[C@@H]43)c2n1
Out: 7.37

Continuing:
In: Requested read-out: pKi. Entry: CCCCC#Cc1nc(NCc2cccc(Cl)c2)c2ncn([C@H]3[C@H](O)[C@H](O)[C@@H]4C[C@@H]43)c2n1
Out: 7.97

In: Requested read-out: pKi. Entry: CCCCC#Cc1nc(NC2CC2)c2ncn([C@H]3[C@H](O)[C@H](O)[C@@H]4C[C@@H]43)c2n1
Out: 7.41

In: Requested read-out: pKi. Entry: CCCCC#Cc1nc(NCc2cccc(Br)c2)c2ncn([C@H]3[C@H](O)[C@H](O)[C@@H]4C[C@@H]43)c2n1
Out: 7.23

In: Requested read-out: pKi. Entry: CCCCC#Cc1nc(NCc2cccc(I)c2)c2ncn([C@H]3[C@H](O)[C@H](O)[C@@H]4C[C@@H]43)c2n1
Out: 7.59

In: Requested read-out: pKi. Entry: CCCCC#Cc1nc(NCC)c2ncn([C@H]3[C@H](O)[C@H](O)[C@@H]4C[C@@H]43)c2n1
Out: 6.75

###

Biological target: Adenosine receptor A3 (Homo sapiens, UniProt P0DMS8)
Sequence (P0DMS8 whole entry): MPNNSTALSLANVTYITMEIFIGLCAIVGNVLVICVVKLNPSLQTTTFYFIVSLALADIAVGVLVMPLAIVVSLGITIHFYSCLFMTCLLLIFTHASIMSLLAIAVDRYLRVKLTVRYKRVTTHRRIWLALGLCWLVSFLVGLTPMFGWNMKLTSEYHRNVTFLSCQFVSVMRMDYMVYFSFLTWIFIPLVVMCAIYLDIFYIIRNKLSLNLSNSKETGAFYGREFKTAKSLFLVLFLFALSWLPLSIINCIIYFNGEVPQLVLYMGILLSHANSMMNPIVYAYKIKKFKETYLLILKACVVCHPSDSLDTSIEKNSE
Assay: Displacement of [125I]-I-AB-MECA from recombinant human adenosine A3 receptor expressed in CHO cells after 60 mins by gamma counting analysis
Format: cell-based
pKi: −log10 of the molar value.
Use 1 (yes) when the recorded pKi is no lower than 8; use 0 (no) when it is lower.

In: Dear colleague, could you confirm whether CCCCC#Cc1nc(NC)c2ncn([C@H]3[C@H](O)[C@H](O)[C@@H]4C[C@@H]43)c2n1 has pKi at or above 8?
Out: 1 (yes)

// next entry
In: Dear colleague, could you confirm whether CCCCC#Cc1nc(NC2CCCC2)c2ncn([C@H]3[C@H](O)[C@H](O)[C@@H]4C[C@@H]43)c2n1 has pKi at or above 8?
Out: 0 (no)

###

Biological target: UniProt P30542
Sequence (whole entry): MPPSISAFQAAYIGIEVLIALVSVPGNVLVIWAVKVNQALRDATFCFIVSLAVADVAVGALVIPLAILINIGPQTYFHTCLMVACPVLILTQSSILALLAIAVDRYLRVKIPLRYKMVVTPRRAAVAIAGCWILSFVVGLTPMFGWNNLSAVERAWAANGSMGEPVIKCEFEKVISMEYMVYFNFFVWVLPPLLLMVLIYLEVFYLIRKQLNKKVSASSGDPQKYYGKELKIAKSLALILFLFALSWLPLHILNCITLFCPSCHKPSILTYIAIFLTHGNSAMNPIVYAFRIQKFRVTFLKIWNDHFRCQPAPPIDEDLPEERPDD
Assay: Displacement of [3H]-R-PIA from recombinant human adenosine A1 receptor expressed in CHO cells at 10 uM after 60 mins by scintillation counting analysis relative to control
Format: cell-based
metric: inhibition (%)
Numeric answer only, unit % assumed.

In: Requested read-out: inhibition. Entry: CCCCC#Cc1nc(NCc2cccc(Br)c2)c2ncn([C@H]3[C@H](O)[C@H](O)[C@@H]4C[C@@H]43)c2n1
Out: 38

Continuing:
In: Requested read-out: inhibition. Entry: CCCCC#Cc1nc(NCc2cccc(Cl)c2)c2ncn([C@H]3[C@H](O)[C@H](O)[C@@H]4C[C@@H]43)c2n1
Out: 19

In: Requested read-out: inhibition. Entry: CCCCC#Cc1nc(NC)c2ncn([C@H]3[C@H](O)[C@H](O)[C@@H]4C[C@@H]43)c2n1
Out: 14
